# TARGET OR SYSTEM: Carbonic anhydrase 1 (Homo sapiens, UniProt P00915)
# Sequence (P00915 whole entry): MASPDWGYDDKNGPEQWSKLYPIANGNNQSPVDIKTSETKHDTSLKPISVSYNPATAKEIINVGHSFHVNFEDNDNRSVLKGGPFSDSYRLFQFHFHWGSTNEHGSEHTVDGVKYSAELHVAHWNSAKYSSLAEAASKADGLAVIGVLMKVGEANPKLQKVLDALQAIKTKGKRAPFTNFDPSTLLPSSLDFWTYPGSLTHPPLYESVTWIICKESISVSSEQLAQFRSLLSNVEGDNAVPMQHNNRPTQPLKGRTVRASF
Each entry below lists one item and its recorded Ki value.

- CHEMICAL STRING: "NS(=O)(=O)c1ccc(CNC(=O)c2cc3ccccc3oc2=O)cc1"
  UNIT STRING: "nM"
  Ki: 69
- CHEMICAL STRING: "NS(=O)(=O)c1ccc(NS(=O)(=O)c2ccc([N+](=O)[O-])cc2)cc1"
  UNIT STRING: "nM"
  Ki: 31
- CHEMICAL STRING: "Cn1nc(S(N)(=O)=O)s/c1=N/C(=O)CCCCC(F)(F)C(F)(F)F"
  UNIT STRING: "nM"
  Ki: 270
- CHEMICAL STRING: "CC(=O)Nc1ccc(S(=O)(=O)Nc2nnc(S(N)(=O)=O)s2)cc1Cl"
  UNIT STRING: "nM"
  Ki: 5
- CHEMICAL STRING: "NS(=O)(=O)c1ccc(CCNS(=O)(=O)c2ccccc2)cc1"
  UNIT STRING: "nM"
  Ki: 69
- CHEMICAL STRING: "Cn1nc(S(N)(=O)=O)s/c1=N/C(=O)c1ccco1"
  UNIT STRING: "nM"
  Ki: 290
- CHEMICAL STRING: "CC(=O)Nc1ccc(S(=O)(=O)Nc2nnc(S(N)(=O)=O)s2)cc1F"
  UNIT STRING: "nM"
  Ki: 6
- CHEMICAL STRING: "NS(=O)(=O)c1ccc(/N=C\\c2ncc[nH]2)cc1"
  UNIT STRING: "nM"
  Ki: 1000
- CHEMICAL STRING: "CC(=O)Nc1ccc(S(=O)(=O)NCCc2ccc(S(N)(=O)=O)cc2)cc1"
  UNIT STRING: "nM"
  Ki: 187
- CHEMICAL STRING: "NS(=O)(=O)c1ccc(NC(=O)CCCCC(F)(F)C(F)(F)F)cc1"
  UNIT STRING: "nM"
  Ki: 950
- CHEMICAL STRING: "CC(=O)Nc1ccc(S(N)(=O)=O)cc1"
  UNIT STRING: "nM"
  Ki: 21400
- CHEMICAL STRING: "NS(=O)(=O)c1ccc(CCNC(=O)Nc2ccc(Cl)c(Cl)c2)cc1"
  UNIT STRING: "nM"
  Ki: 12
- CHEMICAL STRING: "NS(=O)(=O)c1ccc(NS(=O)(=O)c2ccc(F)cc2)cc1"
  UNIT STRING: "nM"
  Ki: 40
- CHEMICAL STRING: "NS(=O)(=O)c1ccc(CCNC(=O)c2cc3ccccc3oc2=O)cc1"
  UNIT STRING: "nM"
  Ki: 66
